target: hERG channel (Homo sapiens)
Sequence (Q12809 whole entry): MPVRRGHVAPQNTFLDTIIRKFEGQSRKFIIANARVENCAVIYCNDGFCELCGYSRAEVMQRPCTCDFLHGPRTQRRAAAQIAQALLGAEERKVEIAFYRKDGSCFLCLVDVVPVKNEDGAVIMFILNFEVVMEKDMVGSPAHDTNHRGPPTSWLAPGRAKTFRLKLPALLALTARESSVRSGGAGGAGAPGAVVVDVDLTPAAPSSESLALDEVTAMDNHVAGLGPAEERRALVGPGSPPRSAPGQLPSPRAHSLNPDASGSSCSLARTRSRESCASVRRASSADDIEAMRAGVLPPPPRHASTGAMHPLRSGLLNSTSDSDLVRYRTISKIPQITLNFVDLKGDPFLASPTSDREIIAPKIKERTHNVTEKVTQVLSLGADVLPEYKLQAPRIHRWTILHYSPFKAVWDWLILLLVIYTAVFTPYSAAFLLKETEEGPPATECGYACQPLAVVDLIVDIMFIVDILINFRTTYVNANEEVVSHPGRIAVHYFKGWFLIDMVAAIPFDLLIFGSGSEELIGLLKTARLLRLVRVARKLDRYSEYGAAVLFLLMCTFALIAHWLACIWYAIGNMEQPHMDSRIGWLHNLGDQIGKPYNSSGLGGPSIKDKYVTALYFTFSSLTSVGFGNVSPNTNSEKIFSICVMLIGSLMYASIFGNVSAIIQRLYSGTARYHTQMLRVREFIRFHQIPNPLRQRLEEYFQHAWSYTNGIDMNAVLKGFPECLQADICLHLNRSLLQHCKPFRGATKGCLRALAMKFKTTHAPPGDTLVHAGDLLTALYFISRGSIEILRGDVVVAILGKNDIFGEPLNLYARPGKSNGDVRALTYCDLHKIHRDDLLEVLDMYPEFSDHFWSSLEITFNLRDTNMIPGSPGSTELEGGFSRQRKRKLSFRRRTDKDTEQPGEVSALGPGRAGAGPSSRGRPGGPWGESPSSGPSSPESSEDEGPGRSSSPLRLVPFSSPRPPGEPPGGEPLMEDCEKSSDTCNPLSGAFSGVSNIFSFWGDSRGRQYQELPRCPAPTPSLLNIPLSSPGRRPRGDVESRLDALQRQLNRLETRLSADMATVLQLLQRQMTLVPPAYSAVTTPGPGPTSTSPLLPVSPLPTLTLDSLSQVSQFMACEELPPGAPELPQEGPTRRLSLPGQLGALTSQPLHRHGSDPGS
MEASUREMENT LABEL: IC50

Result for "COc1ccc(Cn2cnc3c(NS(C)(=O)=O)c(C)c(C)cc32)cc1" , tested on hERG channel (Homo sapiens), IC50: > 10 µM

---

assay: Alamar Blue-based cell viability assay; set-up: species or system human; conditions: human, Huh7.5 cells; genotype 2a experiments; Alamar Blue-based and CellTiter-Blue assay
MEASUREMENT LABEL: CC50 at 72 h

Measured CC50 at 72 h, CC(C)(C)NC(=O)N[C@H](C(=O)N1C[C@H]2[C@@H]([C@H]1C(=O)NC(CC1CCC1)C(=O)C(N)=O)C2(C)C)C(C)(C)C (stereo partly shown) [SCH503034, boceprevir] : > 100 µM

---

assay: Alamar Blue-based cell viability assay; parameters: species or system human; conditions: human, genotype 2a experiments; Alamar Blue-based and CellTiter-Blue assay
MEASUREMENT LABEL: CC50 at 72 h (µM)
The answer is to be given in µM; state only the numeric part.

Measured CC50 at 72 h, "Clc1ccc(Cn2c(CN3CCCC3)nc3ccccc32)cc1" : 35

---

molecular target: hERG channel (Homo sapiens); assay: HERG channel assay (whole cell recordings, CHO cell line expressing hERG); settings: human, CHO cells stably expressing hERG
MEASUREMENT LABEL: IC50

Result for Cc1ccc2c(c1)nc(CN1CCCCC1)n2Cc1ccc(Cl)cc1 [Compound 184] , tested on hERG channel (Homo sapiens), IC50: > 1 µM

These data points were gathered from patent US9101628B2.
